Values were extracted from patent US20240239790A1.

Test: Pharmacokinetic study in mice (IV and PO), plasma
Assay type: in vivo, mouse
Details: female, C57BL/6, po; mouse plasma, PC, 3 mg/kg; read-out: AUCINF—obs
measured parameter: AUC(0-inf) (ng·h/mL)
Report as a plain number; the unit ng·h/mL is understood.

Request: Item under review: CN(C)C(=O)COc1cnc(N[C@H]2CC[C@@H](Oc3nc(N4CCOCC4)cc4ncccc34)CC2)nc1 [Compound 54] . Reported AUC(0-inf)?
Response: 7660

* * *

Test: Pharmacokinetic study in male Sprague-Dawley rats (IV and PO), plasma
Type: in vivo, rat
Settings: male, Sprague-Dawley; rat plasma, PO, 10 mg/kg
Experimental: Pharmacokinetic studies were conducted to estimate plasma concentrations obtained after oral gavage (PO) and intravenous (IV) single administration of compounds administered to male Sprague-Dawley rats. […] The in-vivo study plasma samples were analyzed using Ultra Performance Liquid Chromatography (UPLC) with tandem mass spectrometry (MS/MS) detection in multiple reaction monitoring (MRM) mode. […]
measured parameter: Cmax at 5 min (ng/mL)
Report as a plain number; the unit ng/mL is understood.

Consider the following illustrative entries.
Request: Item under review: O=C(COc1cnc(N[C@H]2CC[C@@H](Oc3nc(N4CCOCC4)cc4ncccc34)CC2)nc1)N1CCOCC1 . Reported Cmax at 5 min?
Response: 235

Request: Then what about the compound CN(C)C(=O)Cn1ccc2nc(N[C@H]3CC[C@@H](Oc4nc(N5CCOCC5)cc5ncccc45)CC3)ncc21 ?
Response: 203

Next:
Request: Item under review: CN1CCN(CCOc2cnc(N[C@H]3CC[C@@H](Oc4nc(N5CCOCC5)cc5ncccc45)CC3)nc2)CC1 . Reported Cmax at 5 min?
Response: 140
